# TESTED_ON: Human FAAH (MBPΔTMhFAAH) (Homo sapiens)
# MEASUREMENT_NOTES: Fluorescent assay protocol for hFAAH
# EXPERIMENTAL_CONDITIONS: human FAAH (MBP fusion, ΔTM), procedure as for rFAAH
Overview of reported IC50 across a group of compounds:

ENTRY_SMILES | IC50
O=C(Oc1cccc(N2CCS(=O)(=O)CC2)c1)N1CCC(c2ccccc2)CC1 | 0.11 to 1 µM
NC(=O)c1cccc(-c2cccc(NC(=O)N3CCN(c4ccccc4)CC3)c2)c1 | 0.01 to 0.1 µM
N#Cc1cccc(-c2cccc(NC(=O)N3C[C@@H]4C[C@H]3CN4Cc3ccc4ccccc4n3)c2)c1 | > 1 µM
O=C(N1CC(N2CCC(c3ccccc3)CC2)C1)n1cnc(-c2ccccc2)c1 | 0.01 to 0.1 µM

###

# TESTED_ON: ΔTM rat FAAH (Rattus norvegicus, UniProt P97612)
# Construct: Preparation of Transmembrane Domain-Deleted Rat FAAH (ΔTM rFAAH)
# Sequence (P97612 30-579 limits assumed, stated change not applied): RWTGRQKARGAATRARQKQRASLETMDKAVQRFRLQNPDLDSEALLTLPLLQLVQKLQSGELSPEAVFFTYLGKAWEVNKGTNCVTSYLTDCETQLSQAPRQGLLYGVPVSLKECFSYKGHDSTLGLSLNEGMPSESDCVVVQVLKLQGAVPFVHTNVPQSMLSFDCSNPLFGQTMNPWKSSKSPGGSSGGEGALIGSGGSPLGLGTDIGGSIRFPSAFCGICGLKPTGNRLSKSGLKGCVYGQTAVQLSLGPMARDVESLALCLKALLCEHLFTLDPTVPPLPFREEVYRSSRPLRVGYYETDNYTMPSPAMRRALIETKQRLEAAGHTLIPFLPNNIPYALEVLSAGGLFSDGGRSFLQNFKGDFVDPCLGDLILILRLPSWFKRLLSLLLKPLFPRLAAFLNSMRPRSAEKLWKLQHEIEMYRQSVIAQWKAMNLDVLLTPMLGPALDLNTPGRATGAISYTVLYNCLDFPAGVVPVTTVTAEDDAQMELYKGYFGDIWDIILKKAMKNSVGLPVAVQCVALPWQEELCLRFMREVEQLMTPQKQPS
# MEASUREMENT_NOTES: Fluorescent assay protocol for ΔTM rat FAAH (AAMCA substrate)
# EXPERIMENTAL_CONDITIONS: 15 min preincubation, read-out: IC50 rFAAH
Overview of reported IC50 across a group of compounds:

COMPOUND | IC50
NC(=O)c1cccc(-c2cccc(NC(=O)N3CCN(c4ccccc4)CC3)c2)c1 | 10 to 100 nM
O=C(Oc1cccc(N2CCS(=O)(=O)CC2)c1)N1CCN(Cc2cccc(Oc3ccccc3)c2)CC1 | 110 to 1000 nM
C[C@H]1CN(Cc2cccc(Oc3ccccc3)c2)CCN1C(=O)Nc1cccc(-c2cccc(C(N)=O)c2)c1 | 10 to 100 nM
O=C(N1CC(N2CCC(c3ccccc3)CC2)C1)n1cccn1 | 10 to 100 nM
O=C(N1CC(OCc2ccc(Br)cc2)C1)n1cnc(-c2ccccc2)c1 | 10 to 100 nM
N#Cc1cccc(-c2cccc(NC(=O)N3C[C@@H]4C[C@H]3CN4Cc3cccc(-c4ccccc4)c3)c2)c1 | 110 to 1000 nM
C[C@H]1CN(Cc2cccc(Oc3ccccc3)c2)CCN1C(=O)n1cnc(Br)c1 | 110 to 1000 nM
O=C(Oc1cccc(Cl)n1)N1CCC(C(c2ccccc2)c2ccccc2)CC1 | 110 to 1000 nM
C[C@H]1CN(C(=O)n2cnc(-c3ccccc3)c2)CCN1Cc1cccc(-c2ccccc2)c1 | 110 to 1000 nM
NC(=O)c1cccc(-c2cccc(NC(=O)N3CCN(Cc4cnc5ccccc5c4)CC3)c2)c1 | 10 to 100 nM
O=C(Oc1ccccc1)N1C[C@@H]2C[C@H]1CN2Cc1cccc(-c2ccccc2)c1 | 10 to 100 nM
O=C(Oc1cccc(Br)c1)N1CC(OCc2ccc(Cl)cc2)C1 | 10 to 100 nM
O=C(N1CCN(C(c2ccc(F)cc2)c2ccc(F)cc2)CC1)n1cnc(-c2ccccc2)c1 | 110 to 1000 nM
O=C(Oc1cccc(Cl)n1)N1CCC(OC(c2ccccc2)c2ccccc2)CC1 | > 1000 nM
O=C(N1CC(N2CCC(c3ccccc3)CC2)C1)n1cnc(-c2ccccc2)c1 | 10 to 100 nM
N#Cc1cccc(-c2cccc(NC(=O)N3CCC4(CC3)CC(=O)c3ccccc3O4)c2)c1 | 110 to 1000 nM
NC(=O)c1cccc(-c2cccc(NC(=O)N3CCN(C4c5ccccc5-c5ccccc54)CC3)c2)c1 | 10 to 100 nM
O=C(Oc1cccc(C(F)(F)F)c1)N1CC(OCc2ccc(Cl)cc2)C1 | 10 to 100 nM
N#Cc1cccc(OC(=O)N2CCN(C3c4ccccc4-c4ccccc43)CC2)c1 | 110 to 1000 nM
O=C(N1CCN(C(c2ccccc2)c2ccccc2)CC1)n1cnc(-c2ccccc2)c1 | > 1000 nM
NC(=O)c1cccc(OC(=O)N2CC(OCc3ccc(Cl)cc3)C2)c1 | 10 to 100 nM
Cc1ccc(C#N)cc1OC(=O)N1CCC(S(=O)(=O)c2ccc(Br)cc2)CC1 | 10 to 100 nM
O=C(N1CCN(C(c2ccc(F)cc2)c2ccc(F)cc2)CC1)n1cnc(Br)c1 | 110 to 1000 nM
O=C(N1CC(Sc2ccc(Br)cc2)C1)n1cncn1 | 10 to 100 nM
N#Cc1cccc(OC(=O)N2CC(OCc3ccc(Cl)cc3)C2)c1 | 10 to 100 nM
N#Cc1cccc(-c2cccc(NC(=O)N3CCC(c4ccccc4)CC3)c2)c1 | > 1000 nM
O=C(Oc1cccc(N2CCS(=O)(=O)CC2)c1)N1CCC(c2ccccc2)CC1 | 110 to 1000 nM
CC1CN(C(=O)n2cnc(-c3ccccc3)c2)CCN1c1cccc(O)c1 (stereo not shown) | 110 to 1000 nM
N#Cc1ccc(F)c(OC(=O)N2CCC(OC(c3ccccc3)c3ccccc3)CC2)c1 | 110 to 1000 nM
O=C(Nc1cccnc1)N1CC(OCc2ccc(Br)cc2)C1 | 110 to 1000 nM
N#Cc1cccc(OC(=O)N2CCC(S(=O)(=O)c3ccc(Br)cc3)CC2)c1 | 110 to 1000 nM
N#Cc1ccc(F)c(OC(=O)N2CCC(S(=O)(=O)c3ccc(Br)cc3)CC2)c1 | 110 to 1000 nM
O=C(N1CCN(C(c2ccc(F)cc2)c2ccc(F)cc2)CC1)n1nnnc1Cc1ccccc1 | 110 to 1000 nM
O=C(Nc1cccc(N2CCS(=O)(=O)CC2)c1)N1CCN(c2ccccc2)CC1 | > 1000 nM

###

# TESTED_ON: Human FAAH (MBPΔTMhFAAH) (Homo sapiens, UniProt O00519)
# Sequence (O00519 30-579 limits assumed): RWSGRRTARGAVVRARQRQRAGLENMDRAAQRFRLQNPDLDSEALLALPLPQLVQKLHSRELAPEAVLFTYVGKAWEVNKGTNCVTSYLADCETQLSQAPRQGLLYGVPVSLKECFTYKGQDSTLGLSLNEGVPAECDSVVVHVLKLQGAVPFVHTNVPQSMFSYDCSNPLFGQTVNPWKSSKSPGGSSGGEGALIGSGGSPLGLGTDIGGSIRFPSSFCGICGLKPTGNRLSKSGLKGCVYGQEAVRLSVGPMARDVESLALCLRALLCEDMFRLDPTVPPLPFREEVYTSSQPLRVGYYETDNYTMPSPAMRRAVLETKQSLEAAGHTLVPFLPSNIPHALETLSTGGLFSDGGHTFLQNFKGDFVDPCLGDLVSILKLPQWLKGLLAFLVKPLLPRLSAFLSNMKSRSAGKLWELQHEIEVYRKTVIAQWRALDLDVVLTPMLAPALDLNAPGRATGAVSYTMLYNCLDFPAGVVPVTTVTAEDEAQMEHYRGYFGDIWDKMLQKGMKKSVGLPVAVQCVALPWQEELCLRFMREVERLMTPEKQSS
# MEASUREMENT_NOTES: Fluorescent assay protocol for hFAAH
# EXPERIMENTAL_CONDITIONS: human FAAH (MBP fusion, ΔTM), procedure as for rFAAH
# Protocol: Human FAAH without putative transmembrane domain following maltose binding protein was expressed in E. coli cells using pMALcE4 vector Alapafuja et al J. Med. Chem. (2012) 55: 10074-89. Procedure was followed as described for hMAGL, except that arachidonoyl-methyl coumarin amide (AAMCA) was used as fluorigenic substrate. […] The fluorescence reading at the 3 hour time point (linear enzyme kinetics) was used to calculate percent inhibition based on control assays without inhibitor present. […]
pIC50: −log10 of the molar value.
MEASURED_QUANTITY: pIC50

ENTRY_SMILES | VALUE
O=C(Nc1cccc(N2CCS(=O)(=O)CC2)c1)N1CCC(c2ccccc2)CC1 | < 6.00
Cc1ccc(C#N)cc1OC(=O)N1CCC(S(=O)(=O)c2ccc(Br)cc2)CC1 | 7.00 to 8.00
N#Cc1cccc(-c2cccc(NC(=O)N3CCN(Cc4ccc5ccccc5n4)CC3)c2)c1 | 7.00 to 8.00
N#Cc1ccc(F)c(OC(=O)N2CCC(S(=O)(=O)c3ccc(Br)cc3)CC2)c1 | 7.00 to 8.00
O=C(Nc1ccccc1)N1CC(OCc2ccc(Cl)cc2)C1 | 6.00 to 6.96
O=C(Oc1cccc(N2CCS(=O)(=O)CC2)c1)N1CCN(Cc2ccc3ccccc3n2)CC1 | 6.00 to 6.96

###

Overview of reported pIC50 across a group of molecules:
# TESTED_ON: Rat MAGL (rMAGL) (Rattus norvegicus)
# Construct: made in house; host or cells: E. coli
# Sequence (Q8R431 whole entry): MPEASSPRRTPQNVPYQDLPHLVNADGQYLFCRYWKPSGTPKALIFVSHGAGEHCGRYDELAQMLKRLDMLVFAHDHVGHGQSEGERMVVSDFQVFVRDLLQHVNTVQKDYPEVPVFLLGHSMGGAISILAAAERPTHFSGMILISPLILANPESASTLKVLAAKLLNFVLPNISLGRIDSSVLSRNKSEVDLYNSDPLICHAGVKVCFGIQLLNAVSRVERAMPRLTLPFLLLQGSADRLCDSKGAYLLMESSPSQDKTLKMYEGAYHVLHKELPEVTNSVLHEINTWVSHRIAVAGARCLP
# MEASUREMENT_NOTES: Fluorescent assay protocol for rMAGL
# Type: biochemical
# EXPERIMENTAL_CONDITIONS: recombinant rat MAGL, procedure as for hMAGL; read-out: IC50 rMAGL
pIC50: −log10 of the molar value.
MEASURED_QUANTITY: pIC50

MOLECULE | MEASURED_QUANTITY | VALUE
O=C(Nc1cccc(N2CCS(=O)(=O)CC2)c1)N1CCC(c2ccccc2)CC1 [Example 68] | pIC50 | 6.00 to 6.96
CC1CN(C(=O)n2cnc(-c3ccccc3)c2)CCN1c1ccccc1 (centres unmarked) [Example 24] | pIC50 | < 6.00
O=C(N1CCN(C(c2ccccc2)c2ccccc2)CC1)n1cnc(-c2ccccc2)c1 [Example 30] | pIC50 | < 6.00
O=C(N1C[C@@H]2C[C@H]1CN2Cc1cccc(-c2ccccc2)c1)n1cnc(Br)c1 [Example 100] | pIC50 | < 6.00
N#Cc1cc(O)cc(OC(=O)N2CCN(C(c3ccccc3)c3ccccc3)CC2)c1 [Example 38] | pIC50 | < 6.00
O=C(Oc1c(F)cccc1F)N1CCC(S(=O)(=O)c2ccc(Br)cc2)CC1 [Example 63] | pIC50 | 6.00 to 6.96
C[C@H]1CN(C(=O)n2cnc(-c3ccccc3)c2)CCN1Cc1cccc(-c2ccccc2)c1 [Example 21] | pIC50 | < 6.00
O=C(Oc1cccc(N2CCS(=O)(=O)CC2)c1)N1CCN(Cc2ccc3ccccc3n2)CC1 [Example 72] | pIC50 | 6.00 to 6.96
